B1: Protein Z-dependent protease inhibitor (Homo sapiens), Q9UK55 (parent)
chain: MKVVPSLLLSVLLAQVWLVPGLAPSPQSPETPAPQNQTSRVVQAPKEEEEDEQEASEEKASEEEKAWLMASRQQLAKETSNFGFSLLRKISMRHDGNMVFSPFGMSLAMTGLMLGATGPTETQIKRGLHLQALKPTKPGLLPSLFKGLRETLSRNLELGLTQGSFAFIHKDFDVKETFFNLSKRYFDTECVPMNFRNASQAKRLMNHYINKETRGKIPKLFDEINPETKLILVDYILFKGKWLTPFDPVFTEVDTFHLDKYKTIKVPMMYGAGKFASTFDKNFRCHVLKLPYQGNATMLVVLMEKMGDHLALEDYLTTDLVETWLRNMKTRNMEVFFPKFKLDQKYEMHELLRQMGIRRIFSPFADLSELSATGRNLQVSRVLQRTVIEVDERGTEAVAGILSEITAYSMPPVIKVDRPFHFMIYEETSGMLLFLGRVVNPTLL

# Variants of: B1
# Details: with proz_human PROZ

- Mutant Code: "E334A;E404A"
  effect of a mutation on the interaction: "with no effect"
- Mutant Code: "E334A"
  effect of a mutation on the interaction: "with no effect"
- Mutant Code: "E404A"
  effect of a mutation on the interaction: "with no effect"
